# System: S. aureus ATCC25923
# PROTOCOL NOTES: Broth microdilution MIC, control strain
# Format: cell-based
# MEASUREMENT CONDITIONS: Staphylococcus aureus, ATCC25923; MH medium; control strain; read-out: MIC
Provide the reported MIC of each item.
Answer with a number only, understood to be in µg/mL.

Incoming: Which MIC reading was recorded for the molecule [H]/N=C(/N)N[C@H]1[C@H](O)[C@@H](O)[C@H](O[C@@H]2O[C@@H](C)[C@](O)(C=O)[C@H]2O[C@@H]2O[C@@H](CO)[C@H](O)[C@@H](O)[C@@H]2NC)[C@@H](N/C(N)=N\[H])[C@@H]1O ?
Outgoing: 2

Incoming: Which MIC reading was recorded for the molecule O=C(N[C@H](CO)[C@H](O)c1ccc([N+](=O)[O-])cc1)C(Cl)Cl ?
Outgoing: 4

Incoming: Returns the measured MIC for the input molecule. Input: CC1(C)S[C@@H]2[C@H](NC(=O)[C@H](N)c3ccccc3)C(=O)N2[C@H]1C(=O)O
Outgoing: 0.125

Incoming: Which measured MIC value corresponds to CN(C)[C@@H]1C(O)=C(C(N)=O)C(=O)[C@@]2(O)C(O)=C3C(=O)c4c(O)cccc4[C@@](C)(O)[C@H]3C[C@@H]12 ?
Outgoing: 1

Incoming: Quick one: MIC of NC[C@H]1O[C@H](O[C@H]2[C@H](O)[C@@H](O[C@H]3O[C@H](CO)[C@@H](O)[C@H](N)[C@H]3O)[C@H](N)C[C@@H]2N)[C@H](O)[C@@H](O)[C@@H]1O ?
Outgoing: 2
